For each entry below, report its IC50 value.
- Test system: Human immunodeficiency virus 1
- Protocol description: Antiviral activity against HIV1 3B infected in human MT4 cells assessed as inhibition of virus-induced cytopathic effect after 4 days by MTT assay
- Format: functional, organism-based
- Conditions used: Human immunodeficiency virus 1, 3B, MT4, 96 h
Give the number; µM is assumed, so skip it.

Q: Please provide the recorded IC50 for COc1ccccc1-c1oc2ccc(N)cc2c(=O)c1OC , tested on Human immunodeficiency virus 1.
A: 229

Q: Also COc1ccc(-c2oc3ccc(N)cc3c(=O)c2O)cc1 , if possible.
A: 239

Q: Also CC(=O)Nc1ccc2oc(-c3cccc(F)c3)cc(=O)c2c1 , if possible.
A: 240

Q: Also COc1ccccc1/C=C/C(=O)c1cc(NC(C)=O)ccc1O , if possible.
A: 37.8

Q: Also CC(=O)Nc1ccc2oc(-c3ccc(F)cc3)cc(=O)c2c1 , if possible.
A: 203

Q: Also COc1c(-c2cccc(C(F)(F)F)c2)oc2ccc(N)cc2c1=O , if possible.
A: 50.4

Q: Also COc1c(-c2ccc(C(F)(F)F)cc2)oc2ccc(N)cc2c1=O , if possible.
A: 290

Q: Also COc1c(-c2ccccc2)oc2ccc(N)cc2c1=O , if possible.
A: 126

Q: Also CC(=O)Nc1ccc(O)c(C(=O)/C=C/c2ccc(F)cc2)c1 , if possible.
A: 41.1

Q: Also COc1ccccc1-c1cc(=O)c2cc(NC(C)=O)ccc2o1 , if possible.
A: 226

Q: Also COc1c(-c2cccc(F)c2)oc2ccc(N)cc2c1=O , if possible.
A: 112

Q: Also COc1ccccc1-c1oc2ccc(N)cc2c(=O)c1O , if possible.
A: 222

Q: Also COc1ccc(/C=C/C(=O)c2cc(NC(C)=O)ccc2O)cc1 , if possible.
A: 38.7

Q: Also Nc1ccc2oc(-c3cccc(F)c3)c(O)c(=O)c2c1 , if possible.
A: 35.3

Q: Also CC(=O)Nc1ccc2oc(-c3cccc(C(F)(F)F)c3)c(O)c(=O)c2c1 , if possible.
A: 5.7

Q: Also Cc1cn([C@H]2C[C@H](N=[N+]=[N-])[C@@H](CO)O2)c(=O)[nH]c1=O [ZIDOVUDINE] , if possible.
A: 0.005

Q: Also CC(=O)Nc1ccc(O)c(C(=O)/C=C/c2cccc(F)c2)c1 , if possible.
A: 30.1

Q: Also CC(=O)Nc1ccc2oc(-c3cccc(F)c3)c(O)c(=O)c2c1 , if possible.
A: 26.5

Q: Also COc1ccc(-c2oc3ccc(NC(C)=O)cc3c(=O)c2O)cc1 , if possible.
A: 98.7

Q: Also COc1c(-c2ccc(F)cc2)oc2ccc(NC(C)=O)cc2c1=O , if possible.
A: 317

Q: Also CC(=O)Nc1ccc2oc(-c3ccc(C(F)(F)F)cc3)c(O)c(=O)c2c1 , if possible.
A: 7.3

Q: Also CC(=O)Nc1ccc2oc(-c3ccccc3F)c(O)c(=O)c2c1 , if possible.
A: 171

Q: Also Nc1ccc2oc(-c3ccc(C(F)(F)F)cc3)c(O)c(=O)c2c1 , if possible.
A: 3.9

Q: Also COc1c(-c2ccccc2F)oc2ccc(N)cc2c1=O , if possible.
A: 44.7

Q: Also CC(=O)Nc1ccc(O)c(C(=O)/C=C/c2ccccc2)c1 , if possible.
A: 49.8

====

- Protocol description: Cytotoxicity against human MT4 cells after 4 days by MTT assay
- Assay type: cell-based
For each entry below, report its CC50 at 96 h value.
Give the number; µM is assumed, so skip it.

Q: Can you share its CC50 at 96 h? I mean this compound: CC(=O)Nc1ccc2oc(-c3ccc(F)cc3)cc(=O)c2c1
A: 203

Q: Also CC(=O)Nc1ccc2oc(-c3ccccc3F)cc(=O)c2c1 , if possible.
A: 205

Q: Also COc1c(-c2ccccc2)oc2ccc(NC(C)=O)cc2c1=O , if possible.
A: 200
